Molecular target: NADPH oxidase 5 (Homo sapiens) (UniProt Q96PH1)
Sequence (Q96PH1 whole entry, looked up): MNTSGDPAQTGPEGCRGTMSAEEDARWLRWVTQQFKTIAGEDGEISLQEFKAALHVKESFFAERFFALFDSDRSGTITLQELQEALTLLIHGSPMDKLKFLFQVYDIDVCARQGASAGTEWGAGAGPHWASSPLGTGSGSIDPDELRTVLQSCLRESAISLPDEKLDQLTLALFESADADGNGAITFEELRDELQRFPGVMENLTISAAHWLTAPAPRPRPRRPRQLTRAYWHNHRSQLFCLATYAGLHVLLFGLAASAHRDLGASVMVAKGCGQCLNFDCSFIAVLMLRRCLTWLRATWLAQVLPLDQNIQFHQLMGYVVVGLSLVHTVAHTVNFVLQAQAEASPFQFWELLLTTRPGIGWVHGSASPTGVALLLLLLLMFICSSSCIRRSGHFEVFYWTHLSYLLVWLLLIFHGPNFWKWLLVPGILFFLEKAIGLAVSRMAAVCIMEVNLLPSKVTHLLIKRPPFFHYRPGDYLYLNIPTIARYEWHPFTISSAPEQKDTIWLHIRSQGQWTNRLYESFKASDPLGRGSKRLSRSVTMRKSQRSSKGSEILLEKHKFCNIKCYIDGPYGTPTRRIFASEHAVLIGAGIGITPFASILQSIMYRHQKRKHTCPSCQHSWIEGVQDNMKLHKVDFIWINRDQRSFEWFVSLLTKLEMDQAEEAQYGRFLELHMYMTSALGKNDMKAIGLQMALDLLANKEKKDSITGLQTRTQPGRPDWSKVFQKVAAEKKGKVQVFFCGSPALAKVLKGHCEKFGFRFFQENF
Experiment: NOX5-dependent H2O2 signal modulators, primary screen, NOX inhibitor project, cell-based, HEK293-NOX5, Amplex Red fluorescence (AID 1161)
Conditions: HEK293-NOX5, ionomycin, 45 min, higher = more signal
Quick rule for you: z-score at -0.1 or higher means class 1, lower means class 0.

Prompt: Could you tell me if the measured z-score of C=CC[C@]1(C(=O)NCCCOC)N=C(c2ccc(OCCCO)cc2)O[C@H]1c1ccccc1 reaches -0.1 or more?
Completion: class 0

----------
Tested on: XIP peptide (Xip251-270) binding
Experiment: small-molecule binders of XIP peptide, primary screen, biochemical, small-molecule microarray, fluorescence 635/667 nm, 0.1 µg/mL protein (AID 1182)
Settings: fluorescent protein binding, 635 nm, higher = more signal, called active from +8 up or from −8 down
Catalogue of composite z-score readings, one per entry.
Output: the number by itself.

// below: answered compounds
| compound | composite z-score |
| --- | --- |
| C=CC[C@@]1(C(=O)N(C)C)N=C(c2ccc(OCCCO)cc2)O[C@@H]1c1ccccc1 | 0.98 |
| Cc1ccc(S[C@]2(C(=O)NCC(F)(F)F)CC(=O)N(C3CCCCC3)[C@@H]2c2ccc(CO)cc2)cc1 | 0.23 |

Query compound follows.
Prompt: Could you share what composite z-score was measured for O=C1OCCC=C[C@H]2OC34C=CCN(c5ccc(Cl)cc5)C(=O)[C@H]3N(CCO)C(=O)[C@@H]4C12 (stereo partly drawn) , tested on XIP peptide (Xip251-270) binding?
Completion: -0.379
